Mdr1a/1b (+/+) ‘F’ estimate by model fit [95% CI) for assorted compounds
Test system: P-glycoprotein (Mdr1a/Mdr1b) in isolated perfused mouse lung
assay: Isolated perfused mouse lung (IPML) airway-to-perfusate absorption, Mdr1a/1b (+/+) vs (−/−)
measurement setup: male, mouse, 50 μM
Procedure: The atria and the lower half of the heart were cut to allow the free flow of perfusate. The lungs were removed and suspended vertically in a custom water-jacketed glass thorax (Radleys, Essex, UK) maintained at 37°C. Following dosing of compound into the IPML airways serial samples (250 μL) were collected for bioanalysis from the 10 mL recirculating perfusate reservoir. […] Radioactive compounds were directly analysed by liquid scintillation counting. […]

// known answers, use as guide
1. CC(C)(C)NCC(O)c1ccc(O)c(CO)c1 (stereo not drawn): 24.9 [21.8 to 28.1]
2. O=C1c2c(O)ccc(O)c2C(=O)c2c(NCCNCCO)ccc(NCCNCCO)c21: 26.4 [21.9 to 30.9]

With those in mind, consider the next compound.
Using P-glycoprotein (Mdr1a/Mdr1b) in isolated perfused mouse lung as the test system, report measured Mdr1a/1b (+/+) ‘F’ estimate by model fit [95% CI) of OCc1cc(C(O)CNCCCCCCOCCCCc2ccccc2)ccc1O (stereo not drawn) . 42.9 [34.6 to 47.2]
